Source listed as PubChem BioAssay.

The following molecules are shown together with reported composite z-score values.
- experiment summary: small molecules captured by biotinylated probe aFSTL3 – biochemical, small-molecule microarray, fluorescence 635/667, stem cell growth factor project, primary screen (AID 1064);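 further: measures binding of the biotinylated anti-FSTL3 antibody to printed compounds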
- test conditions: higher = more signal
Enter a number only.

smiles data	composite z-score
C=C[C@H](C)[C@H](OC(=O)Nc1ccc(OC)cc1)c1ccc(O)c2ccccc12	0.436
CC[C@@H]1C=C(C(=O)O)[C@H](c2ccc(C(C)C)cc2)N1S(=O)(=O)c1ccc(C)cc1	0.341
COC(=O)c1c2oc(c1C(=O)OC)C(=O)N[C@H](Cc1ccccc1)Cn1nncc1C1(CCCCC1)NC(=O)N[C@H](CO)CC2	-0.442

Kindly review the next molecule as well.
Form: molecule = CO[C@H]1O[C@H](CO)[C@@H](OC(=O)Nc2cccc(F)c2)[C@H](OC(=O)Nc2ccccc2-c2ccccc2)[C@@H]1OC(=O)Nc1ccccc1-c1ccccc1 ; composite z-score = -0.217

* * *

- experiment summary: compound effects on hepatocellular carcinoma cell viability – HepG2, calcein-AM fluorescence, 48 h, basal, profiling panel (AID 1164); further: test concentration not given here
- test conditions: higher = more signal
The following compounds are shown together with reported z-score values.
Enter a number only.

Form: compound = [N-]=[N+]=NCc1ccccc1C[C@]1(C(=O)NCc2ccccc2)COC(c2ccc(OCCCO)cc2)=N1 ; z-score = -3.8

* * *

- experiment summary: probe aLAP1 signal on lysate-treated microarray – cell lysate, small-molecule microarray, COS7 lysate, primary screen (AID 1124);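 further: lysate comes from COS7 cells expressing LAP1 and is applied at 0.3 µg/mL; score merges spot fluorescence near 667 nm with signal-to-noise over triplicate slides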
- test conditions: probe aLAP1, fluorescence, higher = more signal
The following molecules are shown together with reported composite z-score values.
Enter a number only.

Form: molecule = CN(C)CCCC[C@@H]1NC(=O)[C@@H]2C[C@H](C(=O)NCCCCCCN)[C@H](c3ccc(O)cc3)N2C1=O ; composite z-score = 0.821

Form: molecule = CCOC(=O)C[C@H]1[C@H](OC(=O)c2ccc(C(=O)c3ccccc3)cc2)[C@@H](NC(=O)c2ccc3ccccc3n2)c2cc(OCCCO)ccc2N1C(=O)c1ccc2ccccc2n1 ; composite z-score = 0.808

Form: molecule = CC(C)C[C@@H]1NC(=O)[C@@H]2C[C@H](C(=O)NCCCCN(C)C)[C@H](c3ccc(O)cc3)N2C1=O ; composite z-score = 0.148

Form: molecule = CN1C(=O)C2C=CC(C(O)c3ccccc3)N(NC(=O)OC(C)(C)C)C2C1=O (configuration not stated) ; composite z-score = 0.23

Form: molecule = C/C=C/[C@H](CCn1cc([C@H](O)c2ccccc2)nn1)[Si](C)(C)c1ccc(OC)cc1 ; composite z-score = 0.612

Form: molecule = O=C(NCC(F)(F)F)[C@@H]1c2ccccc2C(=O)N(Cc2ccccc2)[C@H]1c1ccc(CO)cc1 ; composite z-score = 0.345

Form: molecule = Cc1ccc(S[C@]2(C(=O)NCCCN(C)C)CC(=O)N(C(C)C)[C@@H]2c2ccc(CO)cc2I)cc1 ; composite z-score = 0.693

Form: molecule = COc1ccc([Si](C)(C)[C@H]2[C@H](CCO)O[C@@]3(C(=O)N(Cc4ccccc4)c4ccc(N5C(=O)COc6ccccc65)cc43)[C@@H]2C)cc1 ; composite z-score = 0.11

Form: molecule = O=S(=O)(NCCCO)c1ccc(Br)cc1 ; composite z-score = 0.337

Form: molecule = CCOC(=O)C1=C[C@@H](C(C)(C)C)N(S(=O)(=O)c2ccc(C)cc2)[C@H]1c1ccc(Cl)c(Cl)c1 ; composite z-score = 1.03

Form: molecule = CCOC(=O)C1=CC[C@@H](c2ccccc2)N(S(=O)(=O)c2ccc(C)cc2)[C@H]1c1ccc(C#N)cc1 ; composite z-score = 0.791

Form: molecule = O=C1C[C@@](C(=O)O)(c2ccc([N+](=O)[O-])cc2)[C@@H](c2ccc(CO)cc2I)N1CC12CC3CC(CC(C3)C1)C2 ; composite z-score = 0.945

Form: molecule = Cc1cccc(/C=C/C=O)c1 ; composite z-score = 0.364

Form: molecule = O=C1OCCC=C[C@H]2OC34C=CCN(c5ccc6ccccc6c5)C(=O)[C@H]3N(CCCCCCO)C(=O)[C@@H]4C12 (some centres not stated) ; composite z-score = -0.674

Form: molecule = CC(C)C(=C=CC[C@H](O)c1ccccc1OCCO)CCO ; composite z-score = 0.342

Form: molecule = O=C1OCC=C[C@H]2OC34C=CCN(c5ccc(Cl)cc5)C(=O)[C@H]3N(CCCO)C(=O)[C@@H]4[C@@H]12 (some centres not stated) ; composite z-score = -0.0727

Form: molecule = CCCC[C@@H]1C[C@H]1[C@@H](NC(=O)c1ccco1)c1ccccc1 ; composite z-score = -0.697
